# experiment: Pharmacokinetics: AZD2811 whole blood concentrations and urine excretion
# Format: in vivo, human
# protocol_conditions: human, whole blood, intravenous, 51 mg, whole blood, compartmental PK analysis; Cohort 4: 51 mg, Days 1 and 4, 28-day cycles, no G-CSF, N = 3; read-out: Geometric mean AUC(0–504h) (CV%)
property_label: AUC(0-t) (µg·h/mL)
Numeric only. Scale: µg·h/mL

Record CCN(CCO)CCCOc1ccc2c(Nc3cc(CC(=O)Nc4cccc(F)c4)n[nH]3)ncnc2c1 . Reported AUC(0-t): 1420

---

# experiment: Pharmacokinetics: AZD2811 whole blood concentrations and urine excretion
# Type: in vivo, human
# protocol_conditions: human, in vivo; whole blood; Cohort 8: 200 mg, Day 1, 21-day cycles, optional G-CSF, N = 3; read-out: Geometric mean Cmax (CV%)
property_label: Cmax
Hi, when you answer, please include the unit after the number. Thanks!

Record CCN(CCO)CCCOc1ccc2c(Nc3cc(CC(=O)Nc4cccc(F)c4)n[nH]3)ncnc2c1 . Reported Cmax: 41400 ng/mL
